These data points were gathered from ChEMBL document CHEMBL4265945.

Experiment: Inhibition of mTORC1 (unknown origin) after 40 mins by kinase-Glo reagent based luminescence assay
Design: species or system Homo sapiens
MEASURED_PARAMETER: EC50

1. Cn1c(=O)n(-c2ccc(C(C)(C)C#N)cc2)c2c3cc(-c4cnc5ccccc5c4)ccc3ncc21 [DACTOLISIB] : 79 nM
